Source listed as patent US20250289826A1.

Consider the following compounds; for each one, report its inhibition at 1 µM.
assaySystem: PLpro (Severe acute respiratory syndrome coronavirus 2 (2019-nCoV) (SARS-CoV-2))
assayProtocol: Assay for PLpro inhibitory activity (Ub-AMC fluorescence; single point inhibition test and IC50 determination)
Assay type: biochemical
conditionDetails: read-out: inhibition of PLpro (1 μM), 1 μM test compound, 100 nM PLpro, 10 μM Ub-AMC, 37° C. 30 min
Give the value, in units of %, as a plain number.

Per the reported PLpro (Severe acute respiratory syndrome coronavirus 2 (2019-nCoV) (SARS-CoV-2)) data, Cc1ccc(N2CC(C(C)(C)O)C2)cc1C(=O)NC1(c2ccc(F)c3ncccc23)CC1 has inhibition at 1 µM of 22

Per the reported PLpro (Severe acute respiratory syndrome coronavirus 2 (2019-nCoV) (SARS-CoV-2)) data, Cc1ccc(N)cc1C(=O)NC1(c2ccc(F)c3ncccc23)CC1 has inhibition at 1 µM of 23.1

Per the reported PLpro (Severe acute respiratory syndrome coronavirus 2 (2019-nCoV) (SARS-CoV-2)) data, Cc1ccc(NC2CCNC2)cc1C(=O)NC1(c2ccc(F)c3ccccc23)CC1 (stereo not shown) has inhibition at 1 µM of 27.8

Per the reported PLpro (Severe acute respiratory syndrome coronavirus 2 (2019-nCoV) (SARS-CoV-2)) data, Cc1ccc(NC2CCN(C)CC2)cc1C(=O)NC1(c2ccc(F)c3ncccc23)CC1 has inhibition at 1 µM of 38.4
